tested on: LOX IMVI; assay: NCI tumour cell line growth inhibition, 48 h
Active and inactive are the calls of the source. Rule as the data show it: active = GI50 up to about 1.1 µM and inactive = higher.
PROPERTY: GI50

Here's what some known entries look like.
# COMPOUND, MEASUREMENT TARGET, PROPERTY, RESULT
measured = [
    ("C=C/C=C(\\NC(=O)C(Cl)(Cl)Cl)[Si](C)(C)C", "LOX IMVI", "GI50", "> 100 µM (inactive)"),
    ("FC(F)(F)c1cc(N(C2c3ccccc3C=Cc3ccccc32)P(Cl)Cl)cc(C(F)(F)F)c1", "LOX IMVI", "GI50", "18.5 µM (inactive)"),
]

For record O=C(/C=C\c1ccccc1)Oc1ccc(/C=C2\CCCCC2=O)cc1 the listed GI50 is 60.4 µM (inactive)

For record Cc1cc2c(c(/C=N/c3ccc(N(C)C)cc3)c1)OC1(C=C2)Oc2ccccc2C(=O)N1C (stereo not given) the listed GI50 is 13 µM (inactive)

For record CCO[C@@]1(COCc2ccccc2)OC(=O)C[C@@H]1N1C(=O)OC[C@@H]1c1ccccc1 the listed GI50 is > 100 µM (inactive)
